List of growth values.
- System: SNB-75 CNS
- test_summary: NCI-60 one-dose screen, 48 h (100 = growth as untreated, 0 = no growth, -100 = all killed)
- test_settings: 10 µM unless noted
The panel holds about 83,000 compounds, 20% with a hit somewhere; the sample as a whole holds those more often.
measurement_name: growth (%)

COc1ccc(C2CC(c3ccc(Nc4nc(Nc5ccccc5)nc(Nc5ccccc5)n4)cc3)=NN2C(C)=O)cc1 (centres undefined)
89.8
C=C(C)[C@@H]1CC[C@]2(C(=O)O)CC[C@]3(C)[C@H](CC[C@@H]4[C@@]5(C)CCC(NC(=O)c6cccc(OC(C)=O)c6OC(C)=O)C(C)(C)[C@@H]5CC[C@]43C)[C@@H]12 (some centres undefined)
12.5
CNc1nnc2n(-c3ccccc3)c(=O)c3cnn(-c4ccccc4)c3n12
73.1
c1ccc([P+](c2ccccc2)(c2ccccc2)c2ccc3c4ccc([P+](c5ccccc5)(c5ccccc5)c5ccccc5)c5cccc(c6cccc2c63)c54)cc1
13.5

----------
- Tested on: BT-549 breast
- test_summary: NCI-60 one-dose screen, 48 h (100 = growth as untreated, 0 = no growth, -100 = all killed)
- test_settings: 10 µM unless noted
Compounds without any hit were thinned out: in the full panel of roughly 83,000, 20% have a hit.
measurement_name: growth (%)

O=C1c2c(c3c4ccccc4[nH]c3c3ccc4ccccc4c23)C(=O)N1CCN1CCOCC1
69.8
CCOC(=O)c1cc2c(n1C)-c1nc(NC(C)=O)sc1CCC2
71.8
COc1ccc(-c2nn(-c3cccc(Cl)c3)cc2-c2cc(-c3ccc(Br)cc3)nc(N)n2)cc1
114
Cc1nc2sc(C(=O)Nc3ccc(Br)cc3)c(N)c2cc1C(O)c1ccccc1 (stereo not given)
71.1
Nc1ncnc2c1N=C(c1ccc(Br)cc1)CC(c1cccc(Nc3ccnc4cc(C(F)(F)F)ccc34)c1)N2 (stereo not given)
105
O=S(=O)(c1ccccc1)n1cc2c(c1)-c1nc(Nc3ncccn3)sc1CC2
63.8
NC(N)=NCCCCCNc1noc(Cc2c[nH]c3cc(Br)ccc23)n1
66.5
CCCCCCCCCCCCCCCCOCCCOP(=O)(O)C1CCCN(O)C1=O (stereo not given)
32.2
COc1ccc(C2CC(c3ccc(Nc4nc(Nc5ccccc5)nc(Nc5ccccc5)n4)cc3)=NN2C(C)=O)cc1 (stereo not given)
166
COc1cc2c(cc1OC)C(C)N(S(N)(=O)=O)CC2 (stereo not given)
91.8

----------
- System: SK-MEL-2 melanoma
- test_summary: NCI-60 one-dose screen, 48 h
- test_settings: 10 µM unless noted
Compounds without any hit were thinned out: in the full panel of roughly 83,000, 20% have a hit. Activity calls are given as the source filed them. Rule for the calls: active = growth percent below 10; inactive = the rest.
Outcome codes: active, inactive

NNc1nc(-c2cccnc2)nc2c1sc(=S)n2-c1ccccc1
inactive
CCOC(=O)c1c(NC(=O)c2cccc(C(F)(F)F)c2)sc2c(CN(C)C)c(O)ccc12
inactive
COc1ccc(CN2c3ccccc3Sc3ccccc32)cc1F
inactive
CC(C)=CCC[C@](C)(O)[C@H]1CC[C@]2(C)[C@@H]1CC[C@@H]1[C@@]3(C)C/C(=C/c4ccco4)C(=O)C(C)(C)[C@@H]3CC[C@]12C
inactive
O=C(O)c1cn(C2CC2)c2cc(N3CCN(Cc4ccc5ccccc5c4O)CC3)c(F)cc2c1=O
inactive
COC(=O)/C=C1/SC(=Nc2ccc(C(F)(F)F)cc2)N(CCc2c[nH]c3ccc(O)cc23)C1=O
active
COCCOc1cc2ncnc(N3CCN(c4ncc(S(=O)(=O)N5CCCCC5)cn4)CC3)c2cc1OCCOC
inactive
Cc1nc2sc(C(=O)Nc3cccc4ccccc34)c(N)c2cc1C(O)c1ccccc1 (centres undefined)
inactive
COc1cc(C2CC(c3ccc(Nc4nc(Nc5ccc(Cl)cc5)nc(Nc5ccc(Cl)cc5)n4)cc3)=NN2C(C)=O)cc(OC)c1OC (centres undefined)
inactive

Origin of the recorded values: PubChem BioAssay (NCI)
